# System: 422866-222-R5-J1-PDC complex spheroids viability;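 further: spheroids exposed to compounds for 7 days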
# RUN DESCRIPTION: Anticancer human tumor 422866-222-R5-J1-PDC patient-derived pancreatic adenocarcinoma cell line growth inhibition [RAS]
# TEST PARAMETERS: second compound 0.1 µM; first compound 0.00316 µM; active compounds read low
// classify: if (viability, T/C < 70%) True else False

{"columns": ["COMPOUND", "CATEGORY"],
 "data": [
  ["Nc1ccn(C2OC(CO)C(O)C2(F)F)c(=O)n1 (stereo not given) + C#Cc1c(F)ccc2cc(O)cc(-c3ncc4c(N5CC6CCC(C5)N6)nc(OCC56CCCN5CC(F)C6)nc4c3F)c12", "False"],
  ["CC(C)n1nc(-c2ccc3oc(N)nc3c2)c2c(N)ncnc21 + C=CC(=O)N1CCN(c2nc(OCC3CCCN3C)nc3c(F)c(-c4nc(N)cc(C)c4C(F)(F)F)c(Cl)cc23)C(C)C1", "True"],
  ["CCN1CCN(Cc2ccc(Nc3ncc(F)c(-c4cc(F)c5nc(C)n(C(C)C)c5c4)n3)nc2)CC1 + C#Cc1c(F)ccc2cc(O)cc(-c3ncc4c(N5CC6CCC(C5)N6)nc(OCC56CCCN5CC(F)C6)nc4c3F)c12", "False"],
  ["C=CC(=O)Nc1cc(Nc2nccc(-c3cn(C)c4ccccc34)n2)c(OC)cc1N(C)CCN(C)C + C=CC(=O)N1CCN(c2nc(OCC3CCCN3C)nc3c(F)c(-c4nc(N)cc(C)c4C(F)(F)F)c(Cl)cc23)C(C)C1", "True"],
  ["C=CC(=O)Nc1cc(Nc2nccc(-c3cn(C)c4ccccc34)n2)c(OC)cc1N(C)CCN(C)C + C#Cc1c(F)ccc2cc(O)cc(-c3ncc4c(N5CC6CCC(C5)N6)nc(OCC56CCCN5CC(F)C6)nc4c3F)c12", "False"]
]}
